B1: ATL3 (parent)
chain: FSFRYQQELEEEIKELYENFCKHN

Variants of: B1
Test: protein stability index of a GFP-peptide fusion (GPS, HEK-293T) (PSI 1-6); higher = more stable;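 note: lentivirally expressed fusions sorted by FACS into six bins by GFP to DsRed ratio, PSI derived from sequencing read proportions per bin multiplied by bin number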
Details: c terminus: a fixed tail appended
Output schema: class label derived from protein stability index. Mapping: bottom bin = under 2, middle bin = from 2 up to 3, top bin = 3 and over

variant designation: F3D
category label: top bin
--
variant designation: L16H
category label: top bin
--
variant designation: Y5F
category label: middle bin
--
variant designation: Y5Q
category label: middle bin
--
variant designation: E10I
category label: bottom bin
--
variant designation: I13R
category label: middle bin
--
variant designation: Q7L
category label: bottom bin
--
variant designation: N19K
category label: bottom bin
--
variant designation: L16G
category label: top bin
--
variant designation: F1N
category label: top bin
--
variant designation: K14M
category label: bottom bin
--
variant designation: E12I
category label: middle bin
--
variant designation: Y5A
category label: top bin
--
variant designation: E11C
category label: bottom bin
--
variant designation: K14S
category label: bottom bin
--
variant designation: C21R
category label: middle bin
--
variant designation: E18M
category label: middle bin
--
variant designation: N24Y
category label: middle bin
--
variant designation: E15G
category label: bottom bin
--
variant designation: R4F
category label: middle bin
--
variant designation: Y5M
category label: top bin
--
variant designation: Q7C
category label: middle bin
--
variant designation: F20C
category label: middle bin
--
variant designation: K14I
category label: bottom bin
--
variant designation: I13N
category label: middle bin
--
variant designation: K22L
category label: middle bin
--
variant designation: E15R
category label: middle bin
--
variant designation: F3I
category label: middle bin
--
variant designation: F1S
category label: top bin
--
variant designation: F1P
category label: top bin
--
variant designation: E11W
category label: bottom bin
--
variant designation: E12D
category label: middle bin
--
variant designation: F20W
category label: bottom bin
--
variant designation: E12T
category label: bottom bin
--
variant designation: E8N
category label: middle bin
--
variant designation: F3R
category label: middle bin
--
variant designation: E18D
category label: middle bin
--
variant designation: S2F
category label: bottom bin
--
variant designation: K14Q
category label: middle bin
--
variant designation: E11D
category label: middle bin
--
variant designation: F20H
category label: middle bin
--
variant designation: E15Y
category label: bottom bin
--
variant designation: L9D
category label: top bin
--
variant designation: N24E
category label: bottom bin
--
variant designation: K22D
category label: middle bin
--
variant designation: K22A
category label: middle bin
--
variant designation: K14R
category label: middle bin
--
variant designation: F20Y
category label: middle bin
--
variant designation: Q7R
category label: middle bin
--
variant designation: E15F
category label: bottom bin
--
variant designation: E10S
category label: middle bin
--
variant designation: S2V
category label: bottom bin
--
variant designation: Q7E
category label: middle bin
--
variant designation: R4E
category label: middle bin
--
variant designation: R4Q
category label: middle bin
--
variant designation: Y17F
category label: middle bin
--
variant designation: H23I
category label: middle bin
--
variant designation: C21L
category label: middle bin
--
variant designation: N24R
category label: middle bin
--
variant designation: F20Q
category label: middle bin
--
variant designation: F20A
category label: middle bin
--
variant designation: Y17A
category label: top bin
--
variant designation: Y5D
category label: top bin
--
variant designation: E12P
category label: middle bin
--
variant designation: R4I
category label: bottom bin
--
variant designation: F3L
category label: middle bin
--
variant designation: L9C
category label: top bin
--
variant designation: F3S
category label: middle bin
--
variant designation: Q7S
category label: middle bin
--
variant designation: L16Y
category label: middle bin
--
variant designation: N19F
category label: bottom bin
--
variant designation: E11Q
category label: middle bin
